Known log10 IC50 of a selection of compounds
Target: EGFR L858R/C797S (Homo sapiens, UniProt P00533, C797S/L858R)
Sequence (P00533 25-1210 C797S/L858R): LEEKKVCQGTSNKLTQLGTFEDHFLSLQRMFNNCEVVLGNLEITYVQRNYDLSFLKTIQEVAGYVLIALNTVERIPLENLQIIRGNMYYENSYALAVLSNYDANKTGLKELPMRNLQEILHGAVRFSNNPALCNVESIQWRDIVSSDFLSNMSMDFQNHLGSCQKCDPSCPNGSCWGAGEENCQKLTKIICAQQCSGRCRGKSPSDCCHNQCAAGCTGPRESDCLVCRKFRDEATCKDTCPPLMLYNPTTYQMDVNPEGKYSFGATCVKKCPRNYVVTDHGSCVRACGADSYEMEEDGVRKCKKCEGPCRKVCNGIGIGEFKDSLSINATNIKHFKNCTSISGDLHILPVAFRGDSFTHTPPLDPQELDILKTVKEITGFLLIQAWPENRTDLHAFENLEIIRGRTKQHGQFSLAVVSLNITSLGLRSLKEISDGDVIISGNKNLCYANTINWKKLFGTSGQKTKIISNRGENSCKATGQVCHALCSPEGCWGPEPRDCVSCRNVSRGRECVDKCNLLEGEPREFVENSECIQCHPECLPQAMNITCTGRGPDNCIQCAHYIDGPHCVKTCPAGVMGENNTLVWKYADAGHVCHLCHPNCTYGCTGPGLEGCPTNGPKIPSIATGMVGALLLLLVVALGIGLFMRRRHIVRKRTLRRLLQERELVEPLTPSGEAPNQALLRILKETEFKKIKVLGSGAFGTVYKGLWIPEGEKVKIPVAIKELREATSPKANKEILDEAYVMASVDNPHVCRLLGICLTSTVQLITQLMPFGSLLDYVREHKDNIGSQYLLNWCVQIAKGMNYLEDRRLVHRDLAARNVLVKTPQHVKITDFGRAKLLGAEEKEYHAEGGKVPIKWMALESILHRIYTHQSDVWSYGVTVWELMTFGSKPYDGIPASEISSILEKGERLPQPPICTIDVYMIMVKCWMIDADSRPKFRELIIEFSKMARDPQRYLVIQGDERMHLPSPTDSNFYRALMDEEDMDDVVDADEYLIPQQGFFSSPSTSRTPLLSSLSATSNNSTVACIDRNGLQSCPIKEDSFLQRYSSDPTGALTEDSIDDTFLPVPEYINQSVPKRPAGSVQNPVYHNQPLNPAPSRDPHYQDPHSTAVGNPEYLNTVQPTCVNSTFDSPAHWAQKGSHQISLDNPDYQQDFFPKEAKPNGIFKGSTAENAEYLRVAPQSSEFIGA
Assay: Biochemical EGFR kinase inhibition assay (Lance Ultra TR-FRET), double mutant L858R/C797S
Settings: Km ATP; read-out: IC50 L858R/C797S (nM), Km ATP
Experimental: Biochemical EGFR kinase assays were conducted using Lance Ultra time-resolved fluorescence resonance energy transfer (TR-FRET) technology from Perkin-Elmer. […] Each kinase reactions were incubated at room temperature for 1 hour and then stopped by the addition of 4 μL of stop solution (10 mM EDTA). […] After 60 minutes incubation at room temperature the LANCE signal was measured on an EnVision Multilabel Reader (Perkin-Elmer). […]
Lab note - IC50 converted to log10 from values in nM.

- compound: "COC1(O)CCN(c2cc(Nc3ccnc(-c4cnn(S(=O)(=O)C5CC5)c4)n3)ncc2C#Cc2ncc(CN3CCOCC3)cn2)CC1"
  log10 IC50: 0.59

Q. Please report log10 IC50 for the following compound: CC1(CO)CCN(c2cc(Nc3ccnc(-c4cnn(S(=O)(=O)C5CC5)c4)n3)ncc2C#CC2CCO[C@H]2C(F)(F)F)CC1 (stereo partly shown)
A. 1.24

Q. Give the reported log10 IC50 for this compound. CC1OCCC1C#Cc1cnc(Nc2ccnc(-c3cnn(S(=O)(=O)C4CC4)c3)n2)cc1N1CCC(C)(CO)CC1 (stereo not shown)
A. 0.28

Q. Please give the documented log10 IC50 of `C[C@]1(O)CCCN(c2cc(Nc3ccnc(-c4cnn(S(=O)(=O)C5CC5)c4)n3)ncc2C#Cc2cnn(CCF)c2)C1`
A. 0.54

Q. Give log10 IC50 for CC1OCCC1C#Cc1cnc(Nc2ccnc(-c3cnn(S(=O)(=O)C4CC4)c3)n2)cc1NC1CCC(O)CC1 (stereo not shown)
A. 0.60

Q. Look up and report measured log10 IC50 for this entry: CC1(O)CCN(c2cc(Nc3ccnc(-c4cnn(S(=O)(=O)C5CC5)c4)n3)ncc2C#CC2CCS(=O)(=O)C2)CC1 (stereo not shown)
A. 0.68

Q. Hello, please tell me recorded log10 IC50 for this one: O=S(=O)(C1CC1)n1cc(-c2nccc(Nc3cc(NC4CCC(O)CC4)c(C#CC4CCCO4)cn3)n2)cn1 (stereo not shown)
A. 0.89

Q. Answer with the recorded log10 IC50 of CN(C)CCC1CCCN(c2cc(Nc3ccnc(-c4cnn(S(=O)(=O)C5CC5)c4)n3)ncc2C#Cc2cnn(C)c2)C1 (stereo not shown) only.
A. -0.22

Q. Report measured log10 IC50; entry is `O=S(=O)(C1CC1)n1cc(-c2nccc(Nc3cc(N[C@H]4CC[C@@H](CO)CC4)c(C#Cc4cnn(CCF)c4)cn3)n2)cn1`
A. 0.28

Q. Tell me its log10 IC50 given `O=S(=O)(C1CC1)n1cc(-c2nccc(Nc3cc(N4CCC5(CCO5)CC4)c(C#Cc4ncc(CN5CCOCC5)cn4)cn3)n2)cn1` as the entry.
A. 0.59
